# system.name: SMARCA2 (Homo sapiens, UniProt P51531)
# Sequence (P51531 whole entry): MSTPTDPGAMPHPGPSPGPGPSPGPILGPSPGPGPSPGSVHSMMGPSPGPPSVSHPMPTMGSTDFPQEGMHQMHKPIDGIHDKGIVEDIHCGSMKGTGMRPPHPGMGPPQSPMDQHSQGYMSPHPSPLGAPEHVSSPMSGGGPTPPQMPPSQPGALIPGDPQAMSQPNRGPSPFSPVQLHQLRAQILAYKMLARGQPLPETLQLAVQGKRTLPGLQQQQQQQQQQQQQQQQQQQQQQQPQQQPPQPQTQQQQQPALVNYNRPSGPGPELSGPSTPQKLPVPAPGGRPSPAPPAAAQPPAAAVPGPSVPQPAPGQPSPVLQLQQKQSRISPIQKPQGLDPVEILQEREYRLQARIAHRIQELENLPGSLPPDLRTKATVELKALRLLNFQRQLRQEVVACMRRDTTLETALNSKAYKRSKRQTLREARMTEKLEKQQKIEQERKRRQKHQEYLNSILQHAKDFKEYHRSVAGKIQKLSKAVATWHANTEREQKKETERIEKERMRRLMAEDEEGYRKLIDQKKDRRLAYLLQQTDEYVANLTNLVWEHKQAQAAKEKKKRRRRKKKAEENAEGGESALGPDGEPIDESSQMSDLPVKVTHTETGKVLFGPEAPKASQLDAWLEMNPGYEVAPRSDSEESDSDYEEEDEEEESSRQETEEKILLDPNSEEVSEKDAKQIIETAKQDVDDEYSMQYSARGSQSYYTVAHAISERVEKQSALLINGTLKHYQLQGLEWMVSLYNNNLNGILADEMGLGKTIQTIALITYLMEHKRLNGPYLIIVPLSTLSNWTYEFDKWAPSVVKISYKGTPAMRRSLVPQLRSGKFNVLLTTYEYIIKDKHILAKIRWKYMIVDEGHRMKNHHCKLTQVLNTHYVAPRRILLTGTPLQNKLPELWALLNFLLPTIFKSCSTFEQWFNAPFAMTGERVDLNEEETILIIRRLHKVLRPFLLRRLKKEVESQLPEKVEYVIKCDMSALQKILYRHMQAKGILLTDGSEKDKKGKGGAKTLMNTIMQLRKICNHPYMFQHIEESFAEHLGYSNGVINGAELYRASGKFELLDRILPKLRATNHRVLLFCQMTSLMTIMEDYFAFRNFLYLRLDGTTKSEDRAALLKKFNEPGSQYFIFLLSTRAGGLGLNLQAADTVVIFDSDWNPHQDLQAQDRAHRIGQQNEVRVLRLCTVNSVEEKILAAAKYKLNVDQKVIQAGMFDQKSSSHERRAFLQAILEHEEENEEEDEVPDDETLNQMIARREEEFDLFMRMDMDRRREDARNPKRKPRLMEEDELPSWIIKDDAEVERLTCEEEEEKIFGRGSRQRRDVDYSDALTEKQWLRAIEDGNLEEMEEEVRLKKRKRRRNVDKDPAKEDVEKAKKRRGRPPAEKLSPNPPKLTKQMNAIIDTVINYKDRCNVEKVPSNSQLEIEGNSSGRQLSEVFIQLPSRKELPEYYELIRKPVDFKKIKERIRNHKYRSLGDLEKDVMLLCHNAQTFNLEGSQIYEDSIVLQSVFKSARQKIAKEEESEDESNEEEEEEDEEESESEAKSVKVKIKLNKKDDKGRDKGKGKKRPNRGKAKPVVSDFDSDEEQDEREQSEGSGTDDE
# experiment.notes: SMARCA2 Western blot MV4-11 degradation
# Type: cell-based
# Design: SMARCA2 and SMARCA4 protein degradation in MV4-11 cells; endogenous in cells; host or cells: MV4-11
# settings: MV4-11 cells, 24 h; read-out: SMARCA2 MSD MV411 degradation 24 h: Mean external-Abs DC50
Collected DC50 values appear next to each entry.

# molecule, DC50
data = [
    ("Cc1ncsc1-c1ccc(CNC(=O)[C@@H]2C[C@@H](O)CN2C(=O)[C@@H](NC(=O)C2(F)CC2)C(C)(C)C)c(OCCCCN2CCC(c3cnc(N4C5CCC4CN(c4cc(-c6ccccc6O)nnc4N)C5)nc3)CC2)c1 [I-74]", "< 100 nM"),
]

Please tell me: DC50 of Cc1ncsc1-c1ccc(CNC(=O)[C@@H]2C[C@@H](O)CN2C(=O)C(c2cc(OCCN3CCC(O[C@H]4C[C@H](Oc5cc(N6C7CCC6CN(c6cc(-c8ccccc8O)nnc6N)C7)ccn5)C4)CC3)no2)C(C)C)cc1 (some centres unmarked) [I-22] , system SMARCA2 (Homo sapiens, UniProt P51531)?
< 100 nM

====

# system.name: SMARCA2 (Homo sapiens)
# experiment.notes: SMARCA2 Western blot MV4-11 degradation
# Format: cell-based
# Parameters: SMARCA2 and SMARCA4 protein degradation in MV4-11 cells; endogenous in cells; host or cells: MV4-11
# settings: MV4-11, MV4-11 cells, 24 h; read-out: SMARCA2 MSD MV411 degradation 24 h: average Dmax %
Collected Dmax values appear next to each entry.

Examples with answers:
# compound, system.name, Dmax
records = [
    ("Cc1ncsc1-c1ccc(CNC(=O)[C@@H]2C[C@@H](O)CN2C(=O)[C@@H](NC(=O)[C@H]2CC3(C2)C[C@H](N2CCC(c4ccc(N5C6CCC5CN(c5cc(-c7ccccc7O)nnc5N)C6)cc4)CC2)C3)C(C)(C)C)nc1 (stereo partly shown)", "SMARCA2 (Homo sapiens)", "< 50%"),
    ("Cc1ncsc1-c1ccc(CNC(=O)[C@@H]2C[C@@H](O)CN2C(=O)[C@@H](NC(=O)[C@H]2CC3(CC[C@H](N4CCC(c5cnc(N6C7CCC6CN(c6cc(-c8ccccc8O)nnc6N)C7)nc5)CC4)CC3)C2)C(C)(C)C)cc1 (stereo partly shown)", "SMARCA2 (Homo sapiens)", "70 to 90%"),
    ("Cc1ncsc1-c1ccc(CNC(=O)[C@@H]2C[C@@H](O)CN2C(=O)[C@@H](NC(=O)C2(F)CC2)C(C)(C)C)c(OCCCCCCN2CCC(c3cnc(N4C5CCC4CN(c4cc(-c6ccccc6O)nnc4N)C5)nc3)CC2)c1", "SMARCA2 (Homo sapiens)", "70 to 90%"),
]

Please tell me: Dmax of Cc1ncsc1-c1ccc([C@H](C)NC(=O)[C@@H]2C[C@@H](O)CN2C(=O)[C@@H](NC(=O)[C@H]2CC3(C2)C[C@H](N2CCC(c4cnc(N5C6CCC5CN(c5cc(-c7ccccc7O)nnc5N)C6)nc4)CC2)C3)C(C)(C)C)cc1 (single isomer, unassigned) , system SMARCA2 (Homo sapiens)?
70 to 90%

====

# system.name: SMARCA4 (Homo sapiens)
# Construct: SMARCA2 and SMARCA4 protein degradation in MV4-11 cells; endogenous in cells; host or cells: MV4-11
# experiment.notes: SMARCA4 Western blot MV4-11 degradation
# Assay type: cell-based
# settings: MV4-11, MV4-11 cells, 24 h; read-out: SMARCA4 MSD MV411 degradation 24 h: average Dmax %
experimental.readout: Dmax

Examples with answers:
# compound, system.name, Dmax
records = [
    ("Cc1ncsc1-c1ccc([C@H](C)NC(=O)[C@@H]2C[C@@H](O)CN2C(=O)[C@@H](NC(=O)[C@H]2CC3(C2)C[C@H](N2CCC(c4cnc(N5C6CCC5CN(c5cc(-c7ccccc7O)nnc5N)C6)nc4)CC2)C3)C(C)(C)C)cc1 (single isomer, unassigned)", "SMARCA4 (Homo sapiens)", "70 to 90%"),
    ("Cc1ncsc1-c1ccc(CNC(=O)[C@@H]2C[C@@H](O)CN2C(=O)C(c2cc(N3CCC(N4CCC(c5cnc(N6C7CCC6CN(c6cc(-c8ccccc8O)nnc6N)C7)nc5)CC4)CC3)no2)C(C)C)cc1 (mixture of isomers)", "SMARCA4 (Homo sapiens)", "> 90%"),
]

From here, focus on the item given below.
Please tell me: Dmax of Cc1ncsc1-c1ccc(CNC(=O)[C@@H]2C[C@@H](O)CN2C(=O)[C@@H](NC(=O)[C@H]2CC3(C2)C[C@H](N2CCN(c4cnc(N5C6CCC5CN(c5cc(-c7ccccc7O)nnc5N)C6)nc4)CC2)C3)C(C)(C)C)cc1 (single isomer, unassigned) , system SMARCA4 (Homo sapiens)?
< 50%

====

# system.name: SMARCA4 (Homo sapiens, UniProt P51532)
# Construct: SMARCA2 and SMARCA4 protein degradation in MV4-11 cells; endogenous in cells; host or cells: MV4-11
# Sequence (P51532 whole entry): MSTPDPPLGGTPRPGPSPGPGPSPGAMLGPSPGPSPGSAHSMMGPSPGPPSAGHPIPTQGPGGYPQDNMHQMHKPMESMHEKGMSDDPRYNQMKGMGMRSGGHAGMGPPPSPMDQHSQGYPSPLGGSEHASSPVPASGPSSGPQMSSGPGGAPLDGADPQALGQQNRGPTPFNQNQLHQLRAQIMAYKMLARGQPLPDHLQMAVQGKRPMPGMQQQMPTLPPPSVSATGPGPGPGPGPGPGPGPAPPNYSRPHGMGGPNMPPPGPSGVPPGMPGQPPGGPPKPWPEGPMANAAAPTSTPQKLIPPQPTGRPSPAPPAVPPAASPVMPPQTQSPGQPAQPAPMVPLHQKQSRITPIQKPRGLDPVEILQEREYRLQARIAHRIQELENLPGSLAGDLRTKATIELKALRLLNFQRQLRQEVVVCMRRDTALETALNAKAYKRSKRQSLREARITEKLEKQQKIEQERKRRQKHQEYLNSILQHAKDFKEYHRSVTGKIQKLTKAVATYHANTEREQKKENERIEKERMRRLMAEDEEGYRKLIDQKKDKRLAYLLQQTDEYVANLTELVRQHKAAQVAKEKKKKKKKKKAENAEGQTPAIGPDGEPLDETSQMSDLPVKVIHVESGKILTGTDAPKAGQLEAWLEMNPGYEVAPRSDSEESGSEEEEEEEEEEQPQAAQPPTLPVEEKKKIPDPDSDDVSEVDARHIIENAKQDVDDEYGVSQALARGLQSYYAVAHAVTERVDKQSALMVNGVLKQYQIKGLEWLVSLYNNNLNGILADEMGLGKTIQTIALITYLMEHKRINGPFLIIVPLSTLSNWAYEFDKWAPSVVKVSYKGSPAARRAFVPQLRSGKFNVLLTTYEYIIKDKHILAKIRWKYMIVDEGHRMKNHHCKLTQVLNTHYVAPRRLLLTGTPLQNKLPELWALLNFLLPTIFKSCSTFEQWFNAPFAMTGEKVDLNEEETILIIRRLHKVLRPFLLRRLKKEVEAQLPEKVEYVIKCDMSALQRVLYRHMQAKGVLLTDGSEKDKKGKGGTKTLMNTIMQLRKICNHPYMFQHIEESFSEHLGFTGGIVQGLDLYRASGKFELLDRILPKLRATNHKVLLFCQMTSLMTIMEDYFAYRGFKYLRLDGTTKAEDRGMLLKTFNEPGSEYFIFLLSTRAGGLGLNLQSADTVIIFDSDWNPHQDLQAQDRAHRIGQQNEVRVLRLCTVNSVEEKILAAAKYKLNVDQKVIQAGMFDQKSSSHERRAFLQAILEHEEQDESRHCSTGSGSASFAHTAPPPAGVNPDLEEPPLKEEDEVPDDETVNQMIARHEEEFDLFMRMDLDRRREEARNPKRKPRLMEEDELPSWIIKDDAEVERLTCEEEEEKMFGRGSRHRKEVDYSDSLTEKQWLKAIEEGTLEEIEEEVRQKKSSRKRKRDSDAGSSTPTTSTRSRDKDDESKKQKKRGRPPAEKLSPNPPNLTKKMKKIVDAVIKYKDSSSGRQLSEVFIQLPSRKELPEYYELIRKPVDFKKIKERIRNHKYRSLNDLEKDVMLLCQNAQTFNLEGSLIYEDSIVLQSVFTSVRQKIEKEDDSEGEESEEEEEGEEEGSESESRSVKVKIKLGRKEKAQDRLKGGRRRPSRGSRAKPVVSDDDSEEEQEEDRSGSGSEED
# experiment.notes: SMARCA4 Western blot MV4-11 degradation
# Type: cell-based
# settings: MV4-11 cells
experimental.readout: SMARCA4 MSD MV411 degradation 24 h: average Dmax %

# compound, result
records = [
    ("Cc1ncsc1-c1ccc([C@H](C)NC(=O)[C@@H]2C[C@@H](O)CN2C(=O)[C@@H](NC(=O)[C@H]2CC3(C2)C[C@H](N2CCC(c4ccc(N5C6CCC5CN(c5cc(-c7ccccc7O)nnc5N)C6)cc4)CC2)C3)C(C)(C)C)cn1 (single isomer, unassigned) [I-6]", "A (A (>90% degradation))"),
    ("Cc1ncsc1-c1ccc(CNC(=O)[C@@H]2C[C@@H](O)CN2C(=O)[C@@H](NC(=O)[C@H]2CC3(C2)C[C@H](N2CCC(Oc4ccc(N5C6CCC5CN(c5cc(-c7ccccc7O)nnc5N)C6)cn4)CC2)C3)C(C)(C)C)cc1 (stereo partly shown)", "A (A (>90% degradation))"),
]

====

# system.name: SMARCA4 (Homo sapiens, UniProt P51532)
# Construct: SMARCA2 and SMARCA4 protein degradation in MV4-11 cells; endogenous in cells; host or cells: MV4-11
# experiment.notes: SMARCA4 Western blot MV4-11 degradation
# Type: cell-based
# settings: MV4-11 cells, 24 h; read-out: SMARCA4 MSD MV411 degradation 24 h: Mean external-Abs DC50
experimental.readout: DC50

Examples with answers:
# molecule, result
records = [
    ("Cc1ncsc1-c1ccc([C@H](C)NC(=O)[C@@H]2C[C@@H](O)CN2C(=O)[C@@H](NC(=O)[C@H]2CC3(C2)C[C@H](N2CCC(c4cnc(N5C6CCC5CN(c5cc(-c7ccccc7O)nnc5N)C6)nc4)CC2)C3)C(C)(C)C)cc1 (single isomer, unassigned) [I-2]", "< 100 nM"),
    ("Cc1ncsc1-c1ccc(CNC(=O)[C@@H]2C[C@@H](O)CN2C(=O)[C@@H](NC(=O)[C@H]2CC3(C2)C[C@H](N2CCC(Oc4ccc(N5C6CCC5CN(c5cc(-c7ccccc7O)nnc5N)C6)cn4)CC2)C3)C(C)(C)C)cc1 (stereo partly shown) [I-40]", "> 1000 nM"),
    ("Cc1ncsc1-c1ccc(CNC(=O)[C@@H]2C[C@@H](O)CN2C(=O)[C@@H](NC(=O)CN2CC3(C2)CN(C2CCC(c4cnc(N5C6CCC5CN(c5cc(-c7ccccc7O)nnc5N)C6)nc4)CC2)C3)C(C)(C)C)cc1 (stereo partly shown)", "< 100 nM"),
    ("Cc1ncsc1-c1ccc(CNC(=O)[C@@H]2C[C@@H](O)CN2C(=O)[C@@H](NC(=O)[C@H]2CC3(C2)C[C@H](N2CCC(c4ccc(N5C6CCC5CN(c5cc(-c7ccccc7O)nnc5N)C6)cc4)CC2)C3)C(C)(C)C)nc1 (stereo partly shown) [I-24]", "> 1000 nM"),
    ("Cc1ncsc1-c1ccc(CNC(=O)[C@@H]2C[C@@H](O)CN2C(=O)[C@@H](NC(=O)[C@H]2CC3(C2)C[C@H](N2CC4(CN(c5cnc(N6C7CCC6CN(c6cc(-c8ccccc8O)nnc6N)C7)nc5)C4)C2)C3)C(C)(C)C)cc1 (stereo partly shown) [I-11]", "> 1000 nM"),
    ("Cc1ncsc1-c1ccc([C@H](C)NC(=O)[C@@H]2C[C@@H](O)CN2C(=O)[C@@H](NC(=O)[C@H]2CCC3(CC2)C[C@H](N2CCC(c4cnc(N5C6CCC5CN(c5cc(-c7ccccc7O)nnc5N)C6)nc4)CC2)C3)C(C)(C)C)cc1 (stereo partly shown) [I-16]", "< 100 nM"),
]

What measured DC50 goes with Cc1ncsc1-c1ccc(CNC(=O)[C@@H]2C[C@@H](O)CN2C(=O)C(c2cc(OCCCOCCCN3CCC(Cn4cc(-c5cc(-c6ccccc6O)nnc5N)cn4)CC3)no2)C(C)C)cc1 (stereo partly shown) ?
501 to 1000 nM

What measured DC50 goes with Cc1ncsc1-c1ccc(CNC(=O)[C@@H]2C[C@@H](O)CN2C(=O)[C@@H](c2cc(OCCCCN3CCC(c4cnc(N5C6CCC5CN(c5cc(-c7ccccc7O)nnc5N)C6)nc4)CC3)no2)C(C)C)cc1 ?
< 100 nM

What measured DC50 goes with Cc1ncsc1-c1ccc(CNC(=O)[C@@H]2C[C@@H](O)CN2C(=O)[C@@H](NC(=O)[C@H]2CC3(CC[C@H](N4CCC(c5cnc(N6C7CCC6CN(c6cc(-c8ccccc8O)nnc6N)C7)nc5)CC4)CC3)C2)C(C)(C)C)cc1 (stereo partly shown) [I-14] ?
> 1000 nM

What measured DC50 goes with Cc1ncsc1-c1ccc(CNC(=O)[C@@H]2C[C@@H](O)CN2C(=O)[C@@H](NC(=O)C2CC3(C2)CN(C2CCN(c4cnc(N5C6CCC5CN(c5cc(-c7ccccc7O)nnc5N)C6)nc4)CC2)C3)C(C)(C)C)cc1 ?
> 1000 nM

What measured DC50 goes with Cc1ncsc1-c1ccc(CNC(=O)[C@@H]2C[C@@H](O)CN2C(=O)[C@@H](NC(=O)[C@H]2CC3(C2)C[C@H](N2CCC(c4ccc(N5C6CCC5CN(c5cc(-c7ccccc7O)nnc5N)C6)cc4)CC2)C3)C(C)(C)C)cn1 (stereo partly shown) [I-27] ?
> 1000 nM

What measured DC50 goes with Cc1ncsc1-c1ccc([C@H](C)NC(=O)[C@@H]2C[C@@H](O)CN2C(=O)[C@@H](NC(=O)[C@H]2CC3(C2)C[C@H](N2CCC(c4ccc(N5C6CCC5CN(c5cc(-c7ccccc7O)nnc5N)C6)cc4)CC2)C3)C(C)(C)C)cn1 (single isomer, unassigned) [I-6] ?
> 1000 nM

What measured DC50 goes with Cc1ncsc1-c1ccc(CNC(=O)[C@@H]2C[C@@H](O)CN2C(=O)[C@@H](NC(=O)[C@H]2CCC3(CC2)C[C@H](N2CCC(c4cnc(N5C6CCC5CN(c5cc(-c7ccccc7O)nnc5N)C6)nc4)CC2)C3)C(C)(C)C)cc1 (stereo partly shown) [I-42] ?
> 1000 nM

What measured DC50 goes with Cc1ncsc1-c1ccc(CNC(=O)[C@@H]2C[C@@H](O)CN2C(=O)[C@@H](NC(=O)[C@H]2CC3(CC[C@H](N4CCC(c5cnc(N6C7CCC6CN(c6cc(-c8ccccc8O)nnc6N)C7)nc5)CC4)CC3)C2)C(C)(C)C)cc1 (stereo partly shown) [I-13] ?
> 1000 nM

What measured DC50 goes with Cc1ncsc1-c1ccc([C@H](C)NC(=O)[C@@H]2C[C@@H](O)CN2C(=O)[C@@H](NC(=O)[C@H]2CCC3(CC2)C[C@H](N2CCC(c4cnc(N5C6CCC5CN(c5cc(-c7ccccc7O)nnc5N)C6)nc4)CC2)C3)C(C)(C)C)cc1 (stereo in doubt) [I-15] ?
> 1000 nM

What measured DC50 goes with Cc1ncsc1-c1ccc(C2(NC(=O)[C@@H]3C[C@@H](O)CN3C(=O)[C@@H](NC(=O)[C@H]3CC4(C3)C[C@H](N3CCC(c5cnc(N6C7CCC6CN(c6cc(-c8ccccc8O)nnc6N)C7)nc5)CC3)C4)C(C)(C)C)CC2)cc1 (single isomer, unassigned) [I-4] ?
< 100 nM

Values were extracted from patent US12606568B2.
